Reference for the values: patent EP2658867B1

- target-system: T1, integrin αVβ3 (UniProt P06756 31-992; P05106 27-718)
- T1 construct: Coated on the ELISA plate
- T1 sequence (P06756 31-992, chain 1 of 2): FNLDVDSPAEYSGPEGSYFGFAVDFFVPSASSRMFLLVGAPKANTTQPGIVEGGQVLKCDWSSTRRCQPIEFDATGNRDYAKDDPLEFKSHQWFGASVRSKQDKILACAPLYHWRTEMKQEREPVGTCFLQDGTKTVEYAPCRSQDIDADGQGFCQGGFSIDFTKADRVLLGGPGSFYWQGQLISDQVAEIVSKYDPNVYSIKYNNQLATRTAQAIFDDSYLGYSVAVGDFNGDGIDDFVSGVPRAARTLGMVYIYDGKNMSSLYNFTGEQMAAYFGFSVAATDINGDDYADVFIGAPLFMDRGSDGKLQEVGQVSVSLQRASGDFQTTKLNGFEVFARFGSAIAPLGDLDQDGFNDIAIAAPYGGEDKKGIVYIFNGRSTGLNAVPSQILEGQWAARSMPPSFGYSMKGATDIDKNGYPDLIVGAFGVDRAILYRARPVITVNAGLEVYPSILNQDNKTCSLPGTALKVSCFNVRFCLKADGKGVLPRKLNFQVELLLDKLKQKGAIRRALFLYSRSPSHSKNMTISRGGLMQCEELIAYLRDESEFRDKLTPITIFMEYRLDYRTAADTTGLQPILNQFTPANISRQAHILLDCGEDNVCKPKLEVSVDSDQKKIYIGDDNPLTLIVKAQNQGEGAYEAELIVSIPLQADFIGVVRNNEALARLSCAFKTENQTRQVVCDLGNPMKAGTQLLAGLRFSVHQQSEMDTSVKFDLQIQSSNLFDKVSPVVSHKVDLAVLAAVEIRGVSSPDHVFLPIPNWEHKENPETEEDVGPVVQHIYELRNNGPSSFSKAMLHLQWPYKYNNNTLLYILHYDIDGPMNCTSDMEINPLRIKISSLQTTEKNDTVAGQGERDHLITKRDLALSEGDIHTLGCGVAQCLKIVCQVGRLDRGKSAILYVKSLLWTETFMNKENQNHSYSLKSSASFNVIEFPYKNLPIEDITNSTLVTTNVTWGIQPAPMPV
- T1 sequence (P05106 27-718, chain 2 of 2): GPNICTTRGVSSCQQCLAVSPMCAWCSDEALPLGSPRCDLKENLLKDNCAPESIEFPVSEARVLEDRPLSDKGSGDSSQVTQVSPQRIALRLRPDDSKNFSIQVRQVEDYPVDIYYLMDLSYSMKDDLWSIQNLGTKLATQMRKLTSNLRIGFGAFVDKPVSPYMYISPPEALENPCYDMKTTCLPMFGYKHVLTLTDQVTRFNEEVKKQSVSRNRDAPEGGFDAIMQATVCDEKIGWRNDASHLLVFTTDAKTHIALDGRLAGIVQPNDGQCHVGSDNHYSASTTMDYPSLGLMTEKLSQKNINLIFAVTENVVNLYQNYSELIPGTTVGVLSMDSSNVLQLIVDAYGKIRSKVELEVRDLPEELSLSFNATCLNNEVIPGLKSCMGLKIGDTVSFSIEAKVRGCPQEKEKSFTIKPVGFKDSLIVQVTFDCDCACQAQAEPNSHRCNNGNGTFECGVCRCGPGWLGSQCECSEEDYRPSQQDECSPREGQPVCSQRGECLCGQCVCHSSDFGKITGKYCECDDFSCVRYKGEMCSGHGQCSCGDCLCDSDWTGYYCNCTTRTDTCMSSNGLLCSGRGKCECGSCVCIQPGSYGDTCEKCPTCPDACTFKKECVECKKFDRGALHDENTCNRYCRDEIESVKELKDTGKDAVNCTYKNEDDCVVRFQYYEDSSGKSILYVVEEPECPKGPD
- measurement-protocol: phage ELISA, integrin coated, anti-M13-HRP
endpoint: signal (OD)

INSERT INTO measurements (binder, u, value_reported) VALUES
  ('M13 phage pKK112 displaying MICA α3 domain with tight T-AMY (loop 1 from tendamistat) in loop 1 (designed binder, not shown: large carriers) TVPPMVNYQSWRYSQCRASGFYPWNITLSWRQDGVSLSHDTQQWGDVLPDGNGTYQTWVATRICQGEEQRFTCYMEHSGNHSTHPVPSGK', 'OD', 0.46),
  ('M13 phage pKK103 displaying MICA α3 domain with extended loop 5.3sp in loop 1 (designed binder, not shown: large carriers) TVPPMVNVTSGGSGGGSHLARGDDLTYSGGSGGGVTCRASGFYPWNITLSWRQDGVSLSHDTQQWGDVLPDGNGTYQTWVATRICQGEEQRFTCYMEHSGNHSTHPVPSGK', 'OD', 0.688),
  ('M13 phage pKK95 displaying MICA α3 domain with loop 3.4 in loop 1 (designed binder, not shown: large carriers) TVPPMVNVTRSARGDSDHRVTCRASGFYPWNITLSWRQDGVSLSHDTQQWGDVLPDGNGTYQTWVATRICQGEEQRFTCYMEHSGNHSTHPVPSGK', 'OD', 0.345),
  ('M13 phage pKK136 displaying MICA α3 domain with extended 5.1sp in loop 1 and extended 3.2sp in loop 3 (designed binder, not shown: large carriers) TVPPMVNVTSGGSGGGSVTRGDTFTQSSGGSGGGVTCRASGFYPWNITLSWRQDGVSLSHDTQQWGDVLPDGNGTYQTWVATRISGGSGGGSTSRGDHPRTQSGGSGGGCYMEHSGNHSTHPVPSGK', 'OD', 2.46),
  ('M13 phage pKK106 displaying wild type MICA α3 domain fused to pIII (other, also called WT; not shown: M13 phage capsid protein pIII, C-terminal portion, fused at codon position 198) TVPPMVNVTRSEASEGNITVTCRASGFYPWNITLSWRQDGVSLSHDTQQWGDVLPDGNGTYQTWVATRICQGEEQRFTCYMEHSGNHSTHPVPSGK', 'OD', 0),
  ('M13 phage pKK94 displaying MICA α3 domain with loop 3.3 in loop 1 (designed binder, not shown: large carriers) TVPPMVNVTRVPRGDSDLTVTCRASGFYPWNITLSWRQDGVSLSHDTQQWGDVLPDGNGTYQTWVATRICQGEEQRFTCYMEHSGNHSTHPVPSGK', 'OD', 1.07),
  ('M13 phage pKK100 displaying MICA α3 domain with extended loop 3.2sp in loop 1 (designed binder, not shown: large carriers) TVPPMVNVTSGGSGGGSTSRGDHPRTQSGGSGGGVTCRASGFYPWNITLSWRQDGVSLSHDTQQWGDVLPDGNGTYQTWVATRICQGEEQRFTCYMEHSGNHSTHPVPSGK', 'OD', 0.201),
  ('M13 phage pKK108 displaying MICA α3 domain with tight T-3.5 in loop 1 (designed binder, α3 amplified from pKK53; also called 1-T-3.5; not shown: M13 phage capsid protein pIII, C-terminal portion, fused at codon position 198) TVPPMVNGSRGDSLIMHCRASGFYPWNITLSWRQDGVSLSHDTQQWGDVLPDGNGTYQTWVATRICQGEEQRFTCYMEHSGNHSTHPVPSGK', 'OD', -0.09),
  ('M13 phage pKK91 displaying MICA α3 domain with His10sp in loop 3 (designed binder, not shown: large carriers) TVPPMVNVTRSEASEGNITVTCRASGFYPWNITLSWRQDGVSLSHDTQQWGDVLPDGNGTYQTWVATRISGGSGGGSHHHHHHHHHHSGGSGGGCYMEHSGNHSTHPVPSGK', 'OD', 0.303);
